molecular target: autophosphorylation of PASK at position Thr307 in Hek293 cells overexpressing PASK (Homo sapiens, UniProt Q96RG2); test: PASK autophosphorylation ELISA assay; conditions: 24 h, ELISA readout
Sequence (Q96RG2 with tags, fused parts or gaps): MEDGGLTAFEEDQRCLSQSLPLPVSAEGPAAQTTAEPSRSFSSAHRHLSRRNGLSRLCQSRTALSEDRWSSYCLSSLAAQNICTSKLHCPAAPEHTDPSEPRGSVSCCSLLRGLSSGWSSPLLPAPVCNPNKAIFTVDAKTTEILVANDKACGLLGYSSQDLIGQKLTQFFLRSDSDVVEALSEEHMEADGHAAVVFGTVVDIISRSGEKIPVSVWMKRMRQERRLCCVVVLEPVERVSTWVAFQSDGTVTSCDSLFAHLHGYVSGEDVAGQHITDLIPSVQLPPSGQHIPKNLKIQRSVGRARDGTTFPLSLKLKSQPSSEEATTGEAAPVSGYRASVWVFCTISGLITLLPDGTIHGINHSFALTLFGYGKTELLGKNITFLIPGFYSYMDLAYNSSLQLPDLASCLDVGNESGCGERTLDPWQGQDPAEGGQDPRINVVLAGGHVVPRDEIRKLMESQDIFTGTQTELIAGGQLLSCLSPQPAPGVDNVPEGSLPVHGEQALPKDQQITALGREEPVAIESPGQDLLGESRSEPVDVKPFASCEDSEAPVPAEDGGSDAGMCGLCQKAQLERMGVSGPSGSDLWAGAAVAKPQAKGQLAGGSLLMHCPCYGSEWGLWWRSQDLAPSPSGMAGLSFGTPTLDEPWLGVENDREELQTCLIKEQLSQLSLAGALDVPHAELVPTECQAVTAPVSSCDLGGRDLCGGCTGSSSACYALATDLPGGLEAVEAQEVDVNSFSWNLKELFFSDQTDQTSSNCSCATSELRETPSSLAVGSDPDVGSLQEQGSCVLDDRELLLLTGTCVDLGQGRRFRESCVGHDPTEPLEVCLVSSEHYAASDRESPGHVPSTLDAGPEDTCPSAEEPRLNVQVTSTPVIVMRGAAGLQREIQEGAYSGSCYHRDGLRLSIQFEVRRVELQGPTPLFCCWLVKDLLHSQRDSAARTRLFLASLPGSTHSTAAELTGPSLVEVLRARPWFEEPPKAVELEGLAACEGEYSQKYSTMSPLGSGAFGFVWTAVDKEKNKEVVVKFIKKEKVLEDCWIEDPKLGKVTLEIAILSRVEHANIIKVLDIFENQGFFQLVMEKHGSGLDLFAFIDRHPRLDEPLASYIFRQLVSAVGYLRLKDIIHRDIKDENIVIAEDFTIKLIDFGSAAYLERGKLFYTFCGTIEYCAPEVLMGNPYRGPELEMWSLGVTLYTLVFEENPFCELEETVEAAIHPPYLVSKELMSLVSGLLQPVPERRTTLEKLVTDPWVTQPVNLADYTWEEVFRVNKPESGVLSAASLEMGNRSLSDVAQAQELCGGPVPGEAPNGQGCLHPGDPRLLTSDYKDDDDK
Quantity Measured: IC50

[[record]]
compound = "CCOc1nc(-c2ccn3ncc(-c4c(C)nn(CC(F)(F)F)c4C)c3c2)sc1C(=O)O"
quantity_measured = "IC50"
result = "0.1 to 500 nM"

[[record]]
compound = "CCOc1nc(-c2ccn3ncc(-c4c(C)nn(CC)c4C)c3c2)sc1C(=O)O"
quantity_measured = "IC50"
result = "0.1 to 500 nM"

[[record]]
compound = "Cc1nn(CC(F)(F)F)c(C)c1-c1cnn2ccc(-c3nc(C4CC4)c(C(=O)O)s3)cc12"
quantity_measured = "IC50"
result = "0.1 to 500 nM"

[[record]]
compound = "CCOc1nc(-c2ccn3ncc(-c4c(C)nn(C(F)F)c4C)c3c2)sc1C(=O)O"
quantity_measured = "IC50"
result = "1000 to 5000 nM"

[[record]]
compound = "COc1nc(-c2ccn3ncc(-c4c(C)nn(C(C)C(F)(F)F)c4C)c3c2)sc1C(=O)O (centres unmarked)"
quantity_measured = "IC50"
result = "1000 to 5000 nM"

[[record]]
compound = "Cc1c(-c2cnn3ccc(-n4cc(C(=O)O)cn4)cc23)c(C(F)(F)F)nn1C(C)C"
quantity_measured = "IC50"
result = "1000 to 5000 nM"

[[record]]
compound = "COc1nc(-c2ccn3ncc(-c4c(C)nn(C(F)F)c4C)c3c2)sc1C(=O)O"
quantity_measured = "IC50"
result = "> 5000 nM"

[[record]]
compound = "Cc1nn(C(C)C)c(C)c1-c1cnn2ccc(-c3nc(C4CC4)c(C(=O)O)s3)cc12"
quantity_measured = "IC50"
result = "0.1 to 500 nM"


====

target: human PASK (Homo sapiens, UniProt Q96RG2); construct: purchased ThermoFisher Scientific PR7013A; assay: 33P radioactive kinase assay; assay type: biochemical; conditions: 33P radioactive PASK kinase assay, 10 μM ATP, ZIPtide 1 μM
Sequence (Q96RG2 whole entry): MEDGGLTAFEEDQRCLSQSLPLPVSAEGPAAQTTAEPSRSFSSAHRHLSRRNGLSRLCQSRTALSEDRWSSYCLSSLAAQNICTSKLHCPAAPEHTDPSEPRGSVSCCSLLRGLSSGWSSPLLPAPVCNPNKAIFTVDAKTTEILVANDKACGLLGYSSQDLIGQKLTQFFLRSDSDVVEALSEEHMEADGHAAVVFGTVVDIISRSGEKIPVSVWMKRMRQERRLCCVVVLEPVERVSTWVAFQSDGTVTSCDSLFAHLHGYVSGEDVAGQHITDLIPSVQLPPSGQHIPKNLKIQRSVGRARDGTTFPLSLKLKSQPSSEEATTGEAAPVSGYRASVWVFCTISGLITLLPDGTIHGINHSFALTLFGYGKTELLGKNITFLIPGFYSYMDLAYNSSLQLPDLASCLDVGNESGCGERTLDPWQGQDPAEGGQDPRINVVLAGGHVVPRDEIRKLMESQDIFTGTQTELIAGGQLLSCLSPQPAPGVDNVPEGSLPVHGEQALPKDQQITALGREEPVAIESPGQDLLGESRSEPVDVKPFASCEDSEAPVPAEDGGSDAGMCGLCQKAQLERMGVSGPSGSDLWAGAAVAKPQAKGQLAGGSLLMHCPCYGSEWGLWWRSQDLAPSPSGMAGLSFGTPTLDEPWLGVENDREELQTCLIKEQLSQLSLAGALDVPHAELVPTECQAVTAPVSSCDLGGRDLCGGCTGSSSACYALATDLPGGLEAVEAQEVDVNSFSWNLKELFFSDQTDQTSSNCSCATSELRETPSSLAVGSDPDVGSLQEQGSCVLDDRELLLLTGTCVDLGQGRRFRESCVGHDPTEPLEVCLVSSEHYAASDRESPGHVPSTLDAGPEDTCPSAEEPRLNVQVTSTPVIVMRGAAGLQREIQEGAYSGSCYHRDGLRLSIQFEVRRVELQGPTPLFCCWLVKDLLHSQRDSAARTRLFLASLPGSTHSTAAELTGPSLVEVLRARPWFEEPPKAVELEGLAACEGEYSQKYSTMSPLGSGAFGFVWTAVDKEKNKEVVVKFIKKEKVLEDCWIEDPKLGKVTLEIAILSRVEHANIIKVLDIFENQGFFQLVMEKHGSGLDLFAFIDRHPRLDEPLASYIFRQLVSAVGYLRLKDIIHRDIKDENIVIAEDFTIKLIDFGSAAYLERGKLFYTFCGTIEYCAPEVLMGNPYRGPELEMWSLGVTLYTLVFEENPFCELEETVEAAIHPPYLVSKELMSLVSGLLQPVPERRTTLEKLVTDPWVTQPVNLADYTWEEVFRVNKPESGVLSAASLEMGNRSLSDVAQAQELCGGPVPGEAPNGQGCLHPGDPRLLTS
pIC50: −log10 of the molar value.
Recorded pIC50 for the following compounds
Quantity Measured: pIC50

[[record]]
smiles_notation = "Cc1noc(C)c1-c1cnn2ccc(-c3nc(C(=O)O)co3)cc12"
quantity_measured = "pIC50"
result = "7.00 to 8.00"

[[record]]
smiles_notation = "COc1nc(-c2ccn3ncc(-c4c(C)nn(C)c4C)c3c2)sc1C(=O)O"
quantity_measured = "pIC50"
result = "8.00 to 11.00"

[[record]]
smiles_notation = "Cc1nn(CC(F)(F)F)c(C)c1-c1cnn2ccc(-c3nc(C4CC4)c(C(=O)O)s3)cc12"
quantity_measured = "pIC50"
result = "8.00 to 11.00"

[[record]]
smiles_notation = "Cc1nn(C)cc1-c1cnn2ccc(-c3cc(C(=O)O)co3)cc12"
quantity_measured = "pIC50"
result = "8.00 to 11.00"

[[record]]
smiles_notation = "Cc1nn(C)c(C)c1-c1cnn2ccc(-c3cc(C(N)=O)co3)cc12"
quantity_measured = "pIC50"
result = "8.00 to 11.00"

[[record]]
smiles_notation = "CCn1nc(C)c(-c2cnn3ccc(-c4cc(C(=O)O)co4)cc23)c1C"
quantity_measured = "pIC50"
result = "8.00 to 11.00"

[[record]]
smiles_notation = "Cc1nn(C)c(C)c1-c1cnn2ccc(-c3cc(C(=O)NS(=O)(=O)C4CC4)co3)cc12"
quantity_measured = "pIC50"
result = "7.00 to 8.00"

[[record]]
smiles_notation = "Cc1nn(C)c(C)c1-c1cnn2ccc(-c3cc(C(=O)O)co3)cc12"
quantity_measured = "pIC50"
result = "8.00 to 11.00"

[[record]]
smiles_notation = "Cc1noc(C)c1-c1cnn2ccc(-c3cc(C(=O)O)co3)cc12"
quantity_measured = "pIC50"
result = "8.00 to 11.00"

[[record]]
smiles_notation = "Cc1nn(C(C)C)c(C)c1-c1cnn2ccc(-c3nc(C4CC4)c(C(=O)O)s3)cc12"
quantity_measured = "pIC50"
result = "8.00 to 11.00"

[[record]]
smiles_notation = "COc1nc(-c2ccn3ncc(-c4c(C)nn(C)c4C)c3c2)sc1C(N)=O"
quantity_measured = "pIC50"
result = "8.00 to 11.00"

[[record]]
smiles_notation = "CCc1oc(-c2ccn3ncc(-c4c(C)nn(C)c4C)c3c2)cc1C(=O)O"
quantity_measured = "pIC50"
result = "8.00 to 11.00"

[[record]]
smiles_notation = "Cn1cc(-c2cnn3ccc(-c4cc(C(=O)O)co4)cc23)cn1"
quantity_measured = "pIC50"
result = "7.00 to 8.00"

[[record]]
smiles_notation = "Cc1noc(C)c1-c1cnn2ccc(-c3nc(C(=O)O)c(C)o3)cc12"
quantity_measured = "pIC50"
result = "7.00 to 8.00"

[[record]]
smiles_notation = "COC(=O)c1coc(-c2ccn3ncc(-c4c(C)nn(C)c4C)c3c2)c1"
quantity_measured = "pIC50"
result = "7.00 to 8.00"

[[record]]
smiles_notation = "Cc1nn(C)c(C)c1-c1cnn2ccc(-c3cc(C(=O)O)c(C4CC4)o3)cc12"
quantity_measured = "pIC50"
result = "8.00 to 11.00"

[[record]]
smiles_notation = "Cc1noc(C)c1-c1cnn2ccc(-c3cc(C(=O)O)c(C4=CCOCC4)o3)cc12"
quantity_measured = "pIC50"
result = "8.00 to 11.00"

[[record]]
smiles_notation = "Cc1noc(C)c1-c1cnn2ccc(-c3ncc(C(=O)O)o3)cc12"
quantity_measured = "pIC50"
result = "8.00 to 11.00"

[[record]]
smiles_notation = "Cc1noc(C)c1-c1cnn2ccc(-c3cc(C(=O)O)c(C4CCOCC4)o3)cc12"
quantity_measured = "pIC50"
result = "8.00 to 11.00"


====

Recorded pIC50 for the following compounds
target: human PASK (Homo sapiens, UniProt Q96RG2); construct: purchased ThermoFisher Scientific PR7013A; test: ADP-Glo kinase assay; format: biochemical; conditions: ADPGlo PASK kinase assay, 25 μM ATP, ZIPtide 25 μM
pIC50: −log10 of the molar value.
Quantity Measured: pIC50

[[record]]
smiles_notation = "COc1nn(-c2ccn3ncc(-c4c(C(F)(F)F)nn(C)c4C)c3c2)cc1C(=O)O"
result = "8.00 to 11.00"

[[record]]
smiles_notation = "COc1nn(-c2ccn3ncc(-c4c(C)noc4C)c3c2)cc1C(=O)O"
result = "7.00 to 8.00"

[[record]]
smiles_notation = "COc1nn(-c2ccn3ncc(-c4c(C)nn(CC(F)(F)F)c4C)c3c2)cc1C(=O)O"
result = "8.00 to 11.00"

[[record]]
smiles_notation = "Cc1noc(C)c1-c1cnn2ccc(-c3nc(C(F)(F)F)c(C(=O)O)o3)cc12"
result = "6.30 to 7.00"

